Numbers sourced from the supplement of paper PMC11061612.

Listed here are molecules together with their documented combination Emax.
Test system: J82 (Bladder Carcinoma)
procedure_details: combination Emax (second highest fraction inhibited in the dose matrix, 72 h); higher = more inhibition; extreme values may be limits of the assay
The response must contain the number and no unit.

Would you please look over these solved cases?
[[record]]
molecule = "NC1(C(=O)N[C@@H](CCO)c2ccc(Cl)cc2)CCN(c2ncnc3[nH]ccc23)CC1 [Capivasertib] + C[C@@H]1COCCN1C2=NC(=NC(=C2)C3(CC3)[S@](=N)(=O)C)C4=C5C=CNC5=NC=C4 [AZD6738] (first compound max 10 µM, 7x7, partner max 10 µM)"
result = 0.65

[[record]]
molecule = "COc1cccc(OCCCN)c1-c1cc(Nc2cnc(C#N)cn2)n[nH]1 [Prexasertib] + CN(C)CCCOc1ccc(-c2ccc3ncc4c(c3c2)n(C2CCOCC2)c(=O)n4C)cn1 [AZD0156] (first compound max 1 µM, 7x7, partner max 1 µM)"
result = 0.407

[[record]]
molecule = "CCN(CCO)CCCOc1ccc2c(Nc3cc(CC(=O)Nc4cccc(F)c4)[nH]n3)ncnc2c1 [AZD2811] + O=C(c1cc(Cc2n[nH]c(=O)c3ccccc23)ccc1F)N1CCN(C(=O)C2CC2)CC1 [Olaparib] (first compound max 1 µM, 7x7, partner max 10 µM)"
result = 0.0709


The record that follows has no combination Emax shown yet.
Please give the measured combination Emax for this molecule: NC1(C(=O)N[C@@H](CCO)c2ccc(Cl)cc2)CCN(c2ncnc3[nH]ccc23)CC1 [Capivasertib] + Cn1cnc2c(F)c(Nc3ccc(Br)cc3Cl)c(C(=O)NOCCO)cc21 [Selumetinib] (first compound max 10 µM, 7x7, partner max 10 µM)
0.413

====

Overview of recorded combination Emax for various compounds
Test system: U-266 (Plasma Cell Myeloma)
procedure_details: combination Emax (second highest fraction inhibited in the dose matrix, 72 h); higher = more inhibition; extreme values may be limits of the assay
// print number alone

Reference set, count: 6
[[record]]
compound = "NC1(C(=O)N[C@@H](CCO)c2ccc(Cl)cc2)CCN(c2ncnc3[nH]ccc23)CC1 [Capivasertib] + Cn1cnc2c(F)c(Nc3ccc(Br)cc3Cl)c(C(=O)NOCCO)cc21 [Selumetinib] (first compound max 10 µM, 7x7, partner max 10 µM)"
attribute_measured = "combination Emax"
result = 0.694

[[record]]
compound = "O=C(c1cc(Cc2n[nH]c(=O)c3ccccc23)ccc1F)N1CCN(C(=O)C2CC2)CC1 [Olaparib] + COc1nnc2ccc(N3CCC(c4ccc(OCCN5CCN(C)C(=O)[C@H]5C)cc4)CC3)nn12 [AZD5153] (first compound max 10 µM, 7x7, partner max 1 µM)"
attribute_measured = "combination Emax"
result = 0.291

[[record]]
compound = "C=CCn1c(=O)c2cnc(Nc3ccc(N4CCN(C)CC4)cc3)nc2n1-c1cccc(C(C)(C)O)n1 [AZD1775] + C1CN(CCC1(C(=O)N[C@@H](CCO)C2=CC=C(C=C2)Cl)N)C3=NC=NC4=C3C=CN4 [Capivasertib] (first compound max 3 µM, partner max 3 µM)"
attribute_measured = "combination Emax"
result = 0.795

[[record]]
compound = "Cc1cc2ncnn2cc1Nc1ncc2c(n1)n(C1CCOCC1)c(=O)n2C [AZD7648] + COc1cc([C@@H]2c3cc4c(cc3[C@@H](O[C@@H]3O[C@@H]5CO[C@@H](C)O[C@H]5[C@H](O)[C@H]3O)[C@H]3COC(=O)[C@H]23)OCO4)cc(OC)c1O [Etoposide] (first compound max 10 µM, 7x7, partner max 10 µM)"
attribute_measured = "combination Emax"
result = 0.581

[[record]]
compound = "NC1(C(=O)N[C@@H](CCO)c2ccc(Cl)cc2)CCN(c2ncnc3[nH]ccc23)CC1 [Capivasertib] + CCN(CCO)CCCOc1ccc2c(Nc3cc(CC(=O)Nc4cccc(F)c4)[nH]n3)ncnc2c1 [AZD2811] (first compound max 10 µM, 7x7, partner max 1 µM)"
attribute_measured = "combination Emax"
result = 0.312

[[record]]
compound = "CN(C)CCCOc1ccc(-c2ccc3ncc4c(c3c2)n(C2CCOCC2)c(=O)n4C)cn1 [AZD0156] + CCN(CCO)CCCOc1ccc2c(Nc3cc(CC(=O)Nc4cccc(F)c4)[nH]n3)ncnc2c1 [AZD2811] (first compound max 1 µM, 7x7, partner max 1 µM)"
attribute_measured = "combination Emax"
result = 0.299


Now look at this entry.
Find the recorded combination Emax belonging to CC1(C)CCC(CN2CCN(c3ccc(C(=O)NS(=O)(=O)c4ccc(NCC5CCOCC5)c([N+](=O)[O-])c4)c(Oc4cnc5[nH]ccc5c4)c3)CC2)=C(c2ccc(Cl)cc2)C1 [Venetoclax] + Cn1cnc2c(F)c(Nc3ccc(Br)cc3Cl)c(C(=O)NOCCO)cc21 [Selumetinib] (first compound max 1 µM, 7x7, partner max 3 µM) and report it.
0.722

====

System: TGBC24TKB (Biliary Tract Carcinoma);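 further: after 72 h of two-drug dosing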
procedure_details: Bliss excess, mean over the matrix (fraction); higher = more synergy
In this section we review reported Bliss excess values for a set of compounds.
Give your answer as a number; write no unit.

Illustrative cases are given below, each with its answer.
[[record]]
compound = "CN(CCO)CC[C@H](CSc1ccccc1)Nc1ccc(S(=O)(=O)NC(=O)c2ccc(N3CCC([C@@H](O)c4ccccc4-c4ccc(Cl)cc4)CC3)cc2)cc1S(=O)(=O)C(F)(F)F [AZD4320] + C[C@@H](Nc1cc(F)cc(F)c1)c1cc(C(=O)N(C)C)cc2c(=O)cc(N3CCOCC3)oc12 [AZD8186] (first compound max 1 µM, 7x7, partner max 3 µM)"
result = 0.0011

[[record]]
compound = "Cc1c2c(nn1C)CSCc1cc(n(C)n1)CSc1cc(c3ccccc3c1)OCCCc1c(C(=O)O)n(C)c3c-2c(Cl)ccc13 [AZD5991] + Cc1cc2ncnn2cc1Nc1ncc2c(n1)n(C1CCOCC1)c(=O)n2C [AZD7648] (first compound max 1 µM, 7x7, partner max 10 µM)"
result = -0.0102


# context switch: different compound, same Bliss excess
Which Bliss excess value belongs to COc1cc2c(cc1OCCCCCOc1cc3c(cc1OC)C(=O)N1C=C(C)C[C@H]1C=N3)N=C[C@@H]1CC(C)=CN1C2=O [SG3199] + O=C(c1cc(Cc2n[nH]c(=O)c3ccccc23)ccc1F)N1CCN(C(=O)C2CC2)CC1 [Olaparib] (first compound max 0.001 µM, 7x7, partner max 10 µM) ?
-0.0087

====

Tested on: DMS-273 (Small Cell Lung Carcinoma)
procedure_details: combination Emax (second highest fraction inhibited in the dose matrix, 72 h); higher = more inhibition; extreme values may be limits of the assay
attribute_measured: combination Emax
Response field accepts a number only; no unit should be typed.

These recorded examples may help you get a feel for the data.
[[record]]
compound = "COc1nnc2ccc(N3CCC(c4ccc(OCCN5CCN(C)C(=O)[C@H]5C)cc4)CC3)nn12 [AZD5153] + C=CCn1c(=O)c2cnc(Nc3ccc(N4CCN(C)CC4)cc3)nc2n1-c1cccc(C(C)(C)O)n1 [AZD1775] (first compound max 1 µM, partner max 1 µM)"
assayed_system = "DMS-273 (Small Cell Lung Carcinoma)"
attribute_measured = "combination Emax"
result = 0.847

[[record]]
compound = "COc1cccc(OCCCN)c1-c1cc(Nc2cnc(C#N)cn2)n[nH]1 [Prexasertib] + C[C@@H]1COCCN1C2=NC(=NC(=C2)C3(CC3)[S@](=N)(=O)C)C4=C5C=CNC5=NC=C4 [AZD6738] (first compound max 1 µM, 7x7, partner max 10 µM)"
assayed_system = "DMS-273 (Small Cell Lung Carcinoma)"
attribute_measured = "combination Emax"
result = 0.916

[[record]]
compound = "CN(CCO)CC[C@H](CSc1ccccc1)Nc1ccc(S(=O)(=O)NC(=O)c2ccc(N3CCC([C@@H](O)c4ccccc4-c4ccc(Cl)cc4)CC3)cc2)cc1S(=O)(=O)C(F)(F)F [AZD4320] + C[C@@H](Nc1cc(F)cc(F)c1)c1cc(C(=O)N(C)C)cc2c(=O)cc(N3CCOCC3)oc12 [AZD8186] (first compound max 1 µM, 7x7, partner max 3 µM)"
assayed_system = "DMS-273 (Small Cell Lung Carcinoma)"
attribute_measured = "combination Emax"
result = 0.649

[[record]]
compound = "COc1cc2c(cc1OCCCCCOc1cc3c(cc1OC)C(=O)N1C=C(C)C[C@H]1C=N3)N=C[C@@H]1CC(C)=CN1C2=O [SG3199] + O=C(c1cc(Cc2n[nH]c(=O)c3ccccc23)ccc1F)N1CCN(C(=O)C2CC2)CC1 [Olaparib] (first compound max 0.001 µM, 7x7, partner max 10 µM)"
assayed_system = "DMS-273 (Small Cell Lung Carcinoma)"
attribute_measured = "combination Emax"
result = 0.308


# next compound below
combination Emax for CS(=O)(=O)CCNCc1ccc(-c2ccc3ncnc(Nc4ccc(OCc5cccc(F)c5)c(Cl)c4)c3c2)o1 [Lapatinib] + C[C@@H](Oc1cc(-c2cnn(C3CCNCC3)c2)cnc1N)c1c(Cl)ccc(F)c1Cl [Crizotinib] (first compound max 10 µM, 7x7, partner max 10 µM) ?
0.954
